Origin of the recorded values: PubChem BioAssay AID1159580

# reported normalized growth; entries follow
assay: chemical genetic growth profiling, strain panel (AID 1159580);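 also: tested at 20 µM; growth read once vehicle control cultures reached saturation at 30 °C; 1 = growth at the plate median or of vehicle wells; lower values mean less growth of the strain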; conditions: S. cerevisiae deletion strains, growth OD, locus YLR418C, strain cdc73, hits give low values
Out of some 5,500 compounds screened, about 2,000 (36%) were called active. Not shown: some 18% with an inconclusive outcome. The list shows a part of the results.
Form: value (number only, do not type unit).

# input # normalized growth lookup, item CC1(C)C(=O)C=C[C@@]2(C)C1CC(=O)[C@]1(C)C2CC[C@@]2(C)[C@H](c3ccoc3)OC(=O)[C@H]3O[C@]321 (some centres not stated)
# output 1.04

# input # normalized growth lookup, item CC(C1OC(C)(C)C(O)C1O)[C@@H]1CC[C@]2(C)C3=CCC4C(C)(C)C(=O)CC[C@]4(C)C3CC[C@@]12C (some centres not stated)
# output 0.79

# input # normalized growth lookup, item CC(=O)O[C@@H]1CC2C(C)(C)C(=O)C=C[C@]2(C)C2CC[C@@]3(C)[C@H](c4ccoc4)OC(=O)[C@H]4O[C@]43[C@@]21C (some centres not stated)
# output 1.04
